Test: self-splicing fitness, log relative to wild type (ln ratio); higher = more splicing; Tetrahymena group I intron in knt gene, E. coli kanamycin selection, DiMSum; sequences stand for … in CUCUCU…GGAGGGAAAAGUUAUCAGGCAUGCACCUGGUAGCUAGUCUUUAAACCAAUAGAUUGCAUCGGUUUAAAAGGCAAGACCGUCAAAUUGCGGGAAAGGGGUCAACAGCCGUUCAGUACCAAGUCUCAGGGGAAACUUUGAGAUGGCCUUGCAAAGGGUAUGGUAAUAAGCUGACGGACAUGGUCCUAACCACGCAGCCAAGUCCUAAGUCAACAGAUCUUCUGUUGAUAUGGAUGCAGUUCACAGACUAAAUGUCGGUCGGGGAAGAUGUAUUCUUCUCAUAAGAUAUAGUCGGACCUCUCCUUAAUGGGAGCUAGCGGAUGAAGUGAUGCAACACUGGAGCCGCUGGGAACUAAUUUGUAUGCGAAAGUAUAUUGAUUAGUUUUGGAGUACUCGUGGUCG;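 also: selection with 25 µg/mL kanamycin versus none on LB agar overnight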
Conditions: 30 °C
Answer No if self-splicing fitness (ln) is under -3, and Yes if it is -3 or more.

See these solved cases before continuing.
# chain sequence, category label
measured = [
    ("UUCGAGCAAUAUUACGUCGU", "No"),
    ("CCCCAGCAAUAUUACGGAUG", "Yes"),
    ("UGGAAGCAAUAUUACGCGCU", "Yes"),
    ("CAAGAGCAAUAUUACGUGGC", "No"),
]

Consider the additional sequence presented here.
### Prompt API: above_or_equal(metric=self-splicing fitness (ln), cutoff=-3) for item "UUUGAGCAAUAUUACGGCGA"
### Response Yes

---

Experiment: self-splicing fitness, log relative to wild type (ln ratio); higher = more splicing; Tetrahymena group I intron in knt gene, E. coli kanamycin selection, DiMSum; sequences stand for … in CUCUCU…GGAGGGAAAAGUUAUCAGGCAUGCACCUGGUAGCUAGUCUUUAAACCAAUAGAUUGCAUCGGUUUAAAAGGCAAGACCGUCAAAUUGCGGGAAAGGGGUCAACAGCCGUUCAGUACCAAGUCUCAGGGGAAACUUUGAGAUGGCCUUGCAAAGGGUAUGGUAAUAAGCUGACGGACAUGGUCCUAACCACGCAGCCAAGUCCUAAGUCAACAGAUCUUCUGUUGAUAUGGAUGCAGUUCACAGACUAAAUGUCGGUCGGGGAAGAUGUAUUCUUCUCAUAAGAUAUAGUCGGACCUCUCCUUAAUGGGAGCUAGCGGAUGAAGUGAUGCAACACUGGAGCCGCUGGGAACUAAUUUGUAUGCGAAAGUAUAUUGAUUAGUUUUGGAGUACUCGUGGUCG
Settings: 37 °C
Task for the reader: assign each of the following sequences its reported self-splicing fitness (ln).
Give bare numbers.

# chain sequence, self-splicing fitness (ln)
rows = [
    ("ACUAAGCAAUAUUACGGAUU", -1.1),
]

// input: 8 sequences below; output: self-splicing fitness (ln) for each
1. CUCUAGCAAUAUUACGACUG
2. GGACAGCAAUAUUACGAUGC
3. UAUCAGCAAUAUUACGAGUU
4. CCACAGCAAUAUUACGAGUA
5. ACCAAGCAAUAUUACGCUCU
6. ACAUAGCAAUAUUACGUACU
7. UCUGAGCAAUAUUACGAUGA
8. CUGUAGCAAUAUUACGUCAA

### Response
1. -0.621
2. 0.446
3. -0.829
4. -2.31
5. -0.02
6. 0.46
7. 0.0454
8. -1.85

// input: 2 sequences below; output: self-splicing fitness (ln) for each
1. GGAUAGCAAUAUUACGCGGG
2. AAUAAGCAAUAUUACGCAGG

### Response
-0.931
-2.12

// input: 8 sequences below; output: self-splicing fitness (ln) for each
1. GGAUAGCAAUAUUACGAGAC
2. UAAUAGCAAUAUUACGGGCA
3. UCGUAGCAAUAUUACGUCCA
4. CACCAGCAAUAUUACGAUAU
5. UGGUAGCAAUAUUACGAUGC
6. GCAAAGCAAUAUUACGGUAC
7. UAAUAGCAAUAUUACGCUAA
8. UGUUAGCAAUAUUACGUACC

### Response
-2.63
-0.61
-0.15
-2.46
-1.82
0.0303
-1.39
0.399

// input: 4 sequences below; output: self-splicing fitness (ln) for each
1. CUGCAGCAAUAUUACGGCAU
2. GUUCAGCAAUAUUACGCUAU
3. CGUAAGCAAUAUUACGAACA
4. GUUCAGCAAUAUUACGCGCC

### Response
-0.378
-0.451
-0.207
-1.43
